- experimental.target: dAsCas12a S542R (Acidaminococcus sp., UniProt U2UMQ6 1-1307, S542R;D908A;E993A;D1235A)
- protocol.summary: Spec-seq (native PAGE EMSA with sequencing of bound and unbound); 25 mM Tris-HCl pH 7.4, 150 mM KCl, 5 mM MgCl2, 10% glycerol, 1 mM DTT, 40 ng/uL salmon sperm DNA; 400 nM Cas12a, 480 nM crRNA, 50 nM library, 37 C 1 h; native PAGE at room temperature; high values mean tight binding;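 note: relative affinity from the bound to unbound sequence frequency ratio in Spec-seq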
- stated.conditions: protein: recombinant
recorded.endpoint: binding signal (lnKA)
Write it as a number; the unit lnKA goes unstated.

Exercise: Supply reported binding signal belonging to this binder: GGCA (dsDNA) DNA 1: GCTATCTAGTGCTCAGTACGCACTGGGCAAGGAAACTTCTGGCAGGACCAGGTCATGAGATCGGAAGAGCACACGTCTGAACTCCAGTCA DNA 2: TGACTGGAGTTCAGACGTGTGCTCTTCCGATCTCATGACCTGGTCCTGCCAGAAGTTTCCTTGCCCAGTGCGTACTGAGCACTAGATAGC RNA: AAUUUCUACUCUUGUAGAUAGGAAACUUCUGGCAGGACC
Solution: -8.26

// next item, binding signal requested
Exercise: Supply reported binding signal belonging to this binder: AAAC (dsDNA) DNA 1: GCTATCTAGTGCTCAGTACGCACTGAAACAGGAAACTTCTGGCAGGACCAGGTCATGAGATCGGAAGAGCACACGTCTGAACTCCAGTCA DNA 2: TGACTGGAGTTCAGACGTGTGCTCTTCCGATCTCATGACCTGGTCCTGCCAGAAGTTTCCTGTTTCAGTGCGTACTGAGCACTAGATAGC RNA: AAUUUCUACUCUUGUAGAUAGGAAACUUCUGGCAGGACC
Solution: -8.48
